The measurements presented in this section are drawn from patent US20100113276A1.

# PROTOCOL SUMMARY: log P by HPLC on reversed-phase column (C18), EEC Directive 79/831 Annex V.A8
# Assay type: physicochemical
# EXPERIMENTAL CONTEXT: C18, 40° C., neutral
Short version: log p neutral at least 6 is True, less is False.

Query: # check: log p neutral of Cc1cc(Oc2ccc(Cl)c(C(C)C)c2)c(Cl)cc1N=CN(C)C(C)C [compound 572] is greater than or equal to 6
Result: True

Query: Check if log p neutral >= 6 (inclusive). Item: Cc1cc(Oc2cc(F)cc(Br)c2)c(C)cc1N=CN(C)C [compound 1]
Result: False

Query: Answer whether log p neutral of Cc1cc(N=CN(C)C)c(Cl)cc1Oc1ccc(Cl)c(C(F)(F)F)c1 [compound 892] is greater than or equal to 6.
Result: False

Query: Dear colleague, could you confirm whether CCN(C)C=Nc1cc(C)c(Oc2nc(C(C)C)ns2)cc1C [compound 547] has log p neutral at or above 6?
Result: False

Query: Identify whether the reported log p neutral of the following compound is 6 or greater: CCN(C)C=Nc1cc(Cl)c(Oc2ccc(Cl)c(C(C)C)c2)cc1C [compound 570]
Result: True

Query: For this compound, is measured log p neutral 6 or higher? CCN(C)C=Nc1cc(C)c(Oc2cccc(Oc3ccccc3)c2)cc1Cl [compound 880]
Result: False

Query: Identify whether the reported log p neutral of the following compound is 6 or greater: Clc1cc(Oc2ccccc2)c(Cl)cc1N=CN1CCCCC1 [compound 804]
Result: False

Query: Evaluate CCN(C)C=Nc1cc(C)c(Oc2cccc(C(C)(C)C)c2)cc1Cl [compound 870] : log p neutral at minimum 6?
Result: False

Query: Is it the case that CCN(C)C=Nc1cc(C(F)(F)F)c(Oc2ccc(Cl)c(C(F)(F)F)c2)cc1Cl [compound 948] has log p neutral reaching or exceeding 6?
Result: False

Query: Answer whether log p neutral of Cc1cc(N=CN2CCCCC2)c(Cl)cc1Oc1cccc(C(C)(C)C)c1 [compound 873] is greater than or equal to 6.
Result: True

Query: Given CCc1cc(Oc2cc(C)c(N=CN(C)C3CC3)cc2Cl)ccc1Cl [compound 585] , state whether its log p neutral is at least 6.
Result: True

Query: log p neutral >= 6 for CCN(C)C=Nc1cc(Cl)c(Oc2ccccc2)cc1Cl [compound 801] ?
Result: False

Query: API: above_or_equal(metric=log p neutral, cutoff=6) for item CCCN(C)C=Nc1cc(Cl)c(Oc2ccc(Br)c(C(C)C)c2)cc1C [compound 590]
Result: True

Query: Hi, just wondering whether Cc1cc(N=CN2CCCCC2)c(Cl)cc1Oc1ccc(Cl)c(C(C)(C)C)c1 [compound 906] shows log p neutral of 6 or higher.
Result: True

Query: Given the entry CC(C)(C)c1cc(Oc2cc(F)c(N=CN3CCCCC3)cc2F)ccc1Cl [compound 836] , answer whether its log p neutral meets or surpasses 6.
Result: False

Query: Is it the case that Cc1cc(N=CN2CCCCC2)c(Cl)cc1Oc1ccc(Cl)c(C(C)C)c1 [compound 901] has log p neutral reaching or exceeding 6?
Result: True

====

# PROTOCOL SUMMARY: log P by HPLC on reversed-phase column (C18), EEC Directive 79/831 Annex V.A8
# Format: physicochemical
# EXPERIMENTAL CONTEXT: C18, 40° C., aqueous formic acid / acetonitrile
We use 3 as the dividing line for log p HCO2H: on or above the line is satisfied, below is not satisfied.

Query: Check if log p HCO2H >= 3 (inclusive). Item: `CC(C)N(C)C=Nc1cc(Cl)c(Oc2ccc(Cl)c(C(F)(F)F)c2)cc1Cl`
Result: not satisfied

Query: # bool: log p HCO2H of `CCN(C)C=Nc1cc(C(F)(F)F)c(Oc2ccc(Cl)c(C(C)(C)C)c2)cc1Cl` >= 3
Result: satisfied

Query: Could you tell me if the measured log p HCO2H of `CN(C)C=Nc1cc(C(F)(F)F)c(Oc2ccc(Cl)c(C(F)(F)F)c2)cc1Cl` reaches 3 or more?
Result: not satisfied

Query: Hi, just wondering whether `Cc1cc(N=CN2CCCCC2)c(Cl)cc1Oc1ccc(C(C)(C)C)cc1` shows log p HCO2H of 3 or higher.
Result: not satisfied

Query: Assess whether reported log p HCO2H for `CCN(C)C=Nc1cc(Cl)c(Oc2ccc(Cl)c(C(C)(C)C)c2)cc1Cl` sits at 3 or higher.
Result: satisfied

Query: Please indicate if the recorded log p HCO2H for `CCc1cc(Oc2cc(C)c(N=CN(C)CC)cc2Cl)ccc1Cl` meets or exceeds 3.
Result: not satisfied

Query: Assess whether reported log p HCO2H for `Cc1cc(Oc2ccc(F)c(C(F)(F)F)c2)c(C)cc1N=CN(C)C` sits at 3 or higher.
Result: not satisfied

====

# PROTOCOL SUMMARY: log P by HPLC on reversed-phase column (C18), EEC Directive 79/831 Annex V.A8
# Assay type: physicochemical
# EXPERIMENTAL CONTEXT: C18, 40° C., neutral
Exercise: state measured log p neutral for each of the molecules provided.
Note: the reply should be a number with no unit written.

Query: What does the data say about its log p neutral? Entry: `CC(C)(C)c1cc(Oc2cc(Cl)c(N=CN3CCCCC3)cc2C(F)(F)F)ccc1Cl`
Result: 7.1

Query: Look up log p neutral for this molecule: `Cc1cc(Oc2ccc(Cl)c(C(C)C)c2)c(Cl)cc1N=CN(C)C1CC1`
Result: 6.60

Query: Need log p neutral of `CCN(C)C=Nc1cc(Cl)c(Oc2cc(C(C)(C)C)nn2C)cc1C` , thanks.
Result: 4.41

Query: Consider the molecule shown here: `Cc1cc(N=CN(C)C(C)C)c(Cl)cc1Oc1cccc(C(C)(C)C)c1` What is its recorded log p neutral?
Result: 5.84

Query: Requested field: log p neutral. Item: `CCN(C)C=Nc1cc(Cl)c(Oc2ccc(Cl)c(C(F)(F)F)c2)cc1Cl`
Result: 5.56

Query: What log p neutral value was documented for this molecule, `Cc1cc(N=CN2CCCCC2)c(Cl)cc1Oc1ccc(C(C)C)cc1` ?
Result: 6.21

Query: I have this molecule here, `Cc1cc(-c2ccc(C(C)(C)C)cc2)c(C)cc1N=CN(C)C` , and I need its recorded log p neutral.
Result: 5.74

Query: Dear colleague, I am looking for the recorded log p neutral of the following molecule: CCC(C)N(C)C=Nc1cc(Cl)c(Oc2ccc(Cl)c(C(C)(C)C)c2)cc1C (stereo not drawn)
Result: 7.36

Query: Consider the molecule `Cc1cc(Oc2ccc(Cl)c(C(C)(C)C)c2)c(Cl)cc1N=CN(C)C1CC1` and give its measured log p neutral.
Result: 6.94

====

# PROTOCOL SUMMARY: log P by HPLC on reversed-phase column (C18), EEC Directive 79/831 Annex V.A8
# Assay type: physicochemical
# EXPERIMENTAL CONTEXT: C18, 40° C., neutral
ASSAY METRIC: log p neutral
Please give only the number in your answer, with no unit.

Query: Which log p neutral value is on record for `CCc1cc(Oc2cc(C)c(N=CN(C)CC)cc2Cl)ccc1Cl` ?
Result: 6.09

Query: Form field: reported log p neutral of `Cc1cc(N=CN(C)C(C)C)c(Cl)cc1Oc1ccc(C(C)C)cc1`
Result: 5.91

Query: Fill in the blank: the reported log p neutral of `Cc1cc(Oc2ccc(Br)c(C(C)C)c2)c(Cl)cc1N=CN(C)C(C)C` is ____.
Result: 6.92

Query: Query (molecule): `CCN(C)C=Nc1cc(OC)c(Oc2ccc(Cl)c(C(F)(F)F)c2)cc1OC` ; field requested: log p neutral
Result: 4.14

Query: # lookup: log p neutral of `COc1cc(Oc2ccc(Cl)c(C(F)(F)F)c2)c(OC)cc1N=CN(C)C(C)C`
Result: 4.5

====

# PROTOCOL SUMMARY: log P by HPLC on reversed-phase column (C18), EEC Directive 79/831 Annex V.A8
# Assay type: physicochemical
# EXPERIMENTAL CONTEXT: C18, 40° C., aqueous formic acid / acetonitrile
Hi, to clarify the labels: Met covers log p HCO2H from 3 upward, Not met covers anything below 3.

Query: Tell me whether log p HCO2H is at least 3 here: `CC(C)N(C)C=Nc1cc(Cl)c(Oc2ccc(Cl)c(C(C)(C)C)c2)cc1Cl`
Result: Met

Query: Is log p HCO2H at least 3? Consider `CCN(C)C=Nc1cc(Cl)c(Oc2ccc(Cl)c(C(F)(F)F)c2)cc1Cl`
Result: Not met

Query: State whether the measured log p HCO2H reaches 3, counting equality as reaching it, for `CCc1cc(Oc2cc(C)c(N=CN(C)C3CC3)cc2Cl)ccc1Cl`
Result: Not met

Query: In plain terms: is recorded log p HCO2H at least 3 for `CCN(C)C=Nc1cc(C)c(C=Cc2ccc(OC)cc2)cc1C` ?
Result: Not met

Query: Please check the record `CCN(C)C=Nc1cc(Cl)c(Oc2ccccc2)cc1Cl` and state if its log p HCO2H is at or above 3.
Result: Not met

Query: Determine whether this molecule has log p HCO2H no lower than 3: CCC(C)N(C)C=Nc1cc(Cl)c(Oc2ccc(Cl)c(C(C)C)c2)cc1C (stereo not drawn)
Result: Not met
